- Test target: Voltage-gated potassium channel subunit beta-2 (Rattus norvegicus) (UniProt P62483)
- Sequence (P62483 whole entry, looked up): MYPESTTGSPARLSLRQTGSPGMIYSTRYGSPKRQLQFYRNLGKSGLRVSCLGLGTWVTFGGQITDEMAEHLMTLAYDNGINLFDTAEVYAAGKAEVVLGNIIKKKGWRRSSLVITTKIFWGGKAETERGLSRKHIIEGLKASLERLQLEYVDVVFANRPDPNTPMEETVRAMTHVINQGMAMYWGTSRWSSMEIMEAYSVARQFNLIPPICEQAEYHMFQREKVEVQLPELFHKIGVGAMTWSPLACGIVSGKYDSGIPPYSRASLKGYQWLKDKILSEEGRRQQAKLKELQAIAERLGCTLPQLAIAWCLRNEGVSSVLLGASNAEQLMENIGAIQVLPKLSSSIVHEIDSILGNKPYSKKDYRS
- Method notes: inhibitors of rat Kvbeta2 reductase activity – biochemical, NADPH fluorescence, primary screen (AID 622);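 further: slope of raw intensity against log time taken from 70 to 1610 s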
- Condition summary: recombinant KvBeta, 4-cyanobenzaldehyde reduction, at 10 µM, stronger effect = higher value
Label scheme for fluorescence slope: lower than -0.4 is -1, -0.4 and above is 1.

The examples below pair each entry with its known result.
[[record]]
molecule = "CCC1Cc2c(nc3c4c(nc(N5CCOCC5)c(C#N)c24)NC(C)=N3)O1 (stereo not given)"
test_target = "Voltage-gated potassium channel subunit beta-2 (Rattus norvegicus) (UniProt P62483)"
assigned_label = 1

[[record]]
molecule = "Cc1ccc(S(=O)(=O)N2CCCC(c3nnc4n3-c3ccccc3SC4)C2)cc1 (stereo not given)"
test_target = "Voltage-gated potassium channel subunit beta-2 (Rattus norvegicus) (UniProt P62483)"
assigned_label = -1

[[record]]
molecule = "c1ccc(-c2cn3c4c(sc3n2)CCCC4)cc1"
test_target = "Voltage-gated potassium channel subunit beta-2 (Rattus norvegicus) (UniProt P62483)"
assigned_label = -1


[Q] Reported fluorescence slope reaches at least -0.4 for `CCCNC(=O)Nc1ccccc1C(=O)Nc1ccc(OC)cc1` ?
[A] -1

[Q] # bool: fluorescence slope of `c1ccc(CSCc2cn3ccsc3n2)cc1` >= -0.4
[A] -1

[Q] Has CCOC(=O)N1CCC(NC(=O)CCC(=O)N2CC(C)Oc3ccc(Cl)cc32)CC1 (stereo not given) a recorded fluorescence slope greater than or equal to -0.4?
[A] 1

[Q] Is reported fluorescence slope greater than or equal to -0.4 here: `CN1CCN(C(=O)CCC(=O)c2ccc(F)cc2)CC1`
[A] -1

[Q] Given CSc1cccc(NC(=O)C2CCCN2S(=O)(=O)c2ccc3c(c2)CCC(=O)N3)c1 (stereo not given) , state whether its fluorescence slope is at least -0.4.
[A] -1

* * *

- Method notes: TLR3 IRF3 reporter activation blockers – cell-based, poly I:C stimulus, luciferase, 10K MLSCN set, primary screen (AID 602277)
- Condition summary: HEK293-TLR3 RL24 IRF3 luciferase reporter, at 10 µM, stronger effect = higher value
Active and inactive are the calls of the source.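 Rule for the calls: active = inhibition of the reporter signal at or above 50%; inactive = inhibition below 50%.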
Below, each entry is listed with its recorded inhibition.

Reference set (5 entries):
[[record]]
compound = "O=S(=O)(c1ccc2c(c1)nc1n2CCC1)N1CCOCC1"
reported_metric = "inhibition"
result = "13.8% (inactive)"

[[record]]
compound = "C=CCn1c(C)cc(C(=O)CSc2nc3ccccc3c(=O)[nH]2)c1C"
reported_metric = "inhibition"
result = "-75.7% (inactive)"

[[record]]
compound = "Cc1ccc(OCC2Cn3c(nc4c3c(=O)n(C)c(=O)n4C)O2)cc1 (stereo unspecified)"
reported_metric = "inhibition"
result = "11.7% (inactive)"

[[record]]
compound = "Nc1nc2sc3c(c2c(=O)s1)CCCC3"
reported_metric = "inhibition"
result = "-23.7% (inactive)"

[[record]]
compound = "COc1ccc(-c2nnc(SCC(=O)Nc3cc(C)on3)n2C)cc1OC"
reported_metric = "inhibition"
result = "25% (inactive)"


We now examine a further compound.
[Q] So what's the measured inhibition for this one? `O=C(Nc1nnc(C2CCCCC2)s1)c1cccs1`
[A] -113% (inactive)

* * *

- Method notes: endothelial E-selectin expression blockers – imaging, HUVEC, immunofluorescence, MLSMR starter and 10KST1 sets, primary screen (AID 487);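 on nuclei count: 100% = median nuclei count of all wells on the same plate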
- Condition summary: HUVEC TNFalpha-induced E-selectin immunofluorescence imaging, at 2 µM; measured here: cell number, toxicity
Reported metric: nuclei count

Worked cases, answers included:
[[record]]
compound = "CCOC(=O)c1sc2nc(SCC#N)n(CCCN3CCCC3=O)c(=O)c2c1C"
reported_metric = "nuclei count"
result = "96.1%"

[[record]]
compound = "CCOC(=O)c1cc(-c2ccccc2)sc1N"
reported_metric = "nuclei count"
result = "107%"


[Q] Consider the compound shown here: `O=C(CCNS(=O)(=O)c1ccc(Br)s1)N1CCCCC1` What is its recorded nuclei count?
[A] 106%

[Q] Recorded nuclei count for `CC1(C)CC(=O)C=C(NCCN2CCN(C(=O)Nc3ccccc3)CC2)C1` , please?
[A] 109%

* * *

- Method notes: endothelial E-selectin expression blockers – imaging, HUVEC, immunofluorescence, MLSMR starter and 10KST1 sets, primary screen (AID 487);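 on inhibition: signal is fraction of cell area covered by stained E-selectin grains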
- Condition summary: HUVEC TNFalpha-induced E-selectin immunofluorescence imaging, at 2 µM; stronger effect = higher value
The entries below are paired with their reported inhibition.
Field: numeric (%). Do not append units.

Before answering, review these 5 worked examples.
[[record]]
molecule = "COc1cccc(CN(C(=O)c2cc3ccccc3oc2=O)C2CC2)c1"
unit_name = "%"
result_number = -52.3

[[record]]
molecule = "N#Cc1c(/N=C/c2ccco2)sc2c1CCC2"
unit_name = "%"
result_number = -12.4

[[record]]
molecule = "COc1ccccc1C1C(C(C)=O)=C(O)C(=O)N1CCc1ccccc1 (stereo unspecified)"
unit_name = "%"
result_number = -33.5

[[record]]
molecule = "O=C(NC1CCCC1)C(NS(=O)(=O)c1cccc2nsnc12)c1ccccc1 (stereo unspecified)"
unit_name = "%"
result_number = -22.2

[[record]]
molecule = "COCCCNC(=O)C(Cc1ccccc1)NS(=O)(=O)c1ccc2c(c1)c(=O)n(C)c(=O)n2C (stereo unspecified)"
unit_name = "%"
result_number = -10.2


[Q] Which inhibition is reported for this molecule? `O=C(CCC(=O)OCCCC(F)(F)C(F)(F)F)NC1CCCCC1`
[A] -37.5

[Q] // query inhibition value for entry O=C(Nc1ccc2c(c1)C(=O)N(C1CCCCC1)C2=O)C1CCCO1 (stereo unspecified)
[A] 47.7

[Q] Query: inhibition; subject: `COc1ccc(C(=O)Nc2ccc(S(=O)(=O)Nc3nccnc3OC)cc2)cc1OC`
[A] -126

[Q] Endpoint output: inhibition of `CCOC(=O)c1cc(C)n(CCCN2CCOCC2)c1C` . Value?
[A] -162

[Q] # lookup: inhibition of `COCCN(CCOC)C(=O)c1sc2nc(-c3ccccc3)cn2c1C`
[A] -55.5

[Q] Requested field: inhibition. Item: `O=C(c1cccnc1)N1CCN(C(=O)c2ccccc2F)CC1`
[A] -6

* * *

- Test target: Voltage-gated potassium channel subunit beta-2 (Rattus norvegicus) (UniProt P62483)
- Method notes: enhancers of rat Kvbeta2 NADPH turnover – biochemical, NADPH fluorescence, primary screen (AID 623);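 further: fluorescence intensity change per second fitted from 20 to 320 s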
- Condition summary: Recombinant KvBeta, NADPH fluorescence decrease slope, 10 min; at 10 µM; stronger effect = lower value
Reported metric: NADPH fluorescence slope
Lab note: record just the number, no unit beside it.

Solved entries:
[[record]]
compound = "COc1ccc(C(NC(C)=O)c2ccc3cccnc3c2O)c(OC)c1 (stereo not given)"
result_number = "-5.8e-05"

[[record]]
compound = "C=CCNc1nc2c(c(=O)n(C)c(=O)n2C)n1CCCCCC"
result_number = "-3.7e-05"

[[record]]
compound = "N#Cc1nc(COc2ccccc2Cl)oc1N1CCCCCC1"
result_number = "-5e-05"

[[record]]
compound = "c1ccc(-c2nc3ccccc3nc2-c2ccccn2)nc1"
result_number = "-3.4e-05"


The record that follows has no NADPH fluorescence slope shown yet.
[Q] Please look up its NADPH fluorescence slope: `CC1(C)CC(=O)C(C=Nc2ccncc2)=C(O)C1`
[A] 5e-06

* * *

- Method notes: blockers of RIG-like receptor reporter activation – cell-based, Sendai virus stimulus, luciferase, 10K MLSCN set, TLR/RLR signaling modifier project, primary screen (AID 602276);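 further: firefly luciferase from ISG56 promoter only with Renilla not read in this screen; 0% = Sendai virus plus DMSO and 100% = medium plus DMSO without virus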
- Condition summary: HEK293 RL24 IRF3 luciferase reporter, at 10 µM, stronger effect = higher value
Some molecules, each annotated with its measured inhibition.
Reply with just the number (in %).

[[record]]
molecule = "O=C(NCCN1CCOCC1)c1ccc(CS(=O)(=O)Cc2ccccc2F)o1"
result_number = 11.2

[[record]]
molecule = "Cc1oc2c(c1C(=O)NCc1ccccc1)CCCC2"
result_number = 9.63

[[record]]
molecule = "COCCCNC(=O)C1CCCN(C(=O)Nc2ccc(OC)cc2)C1 (stereo not given)"
result_number = 16.2

[[record]]
molecule = "CC(=O)c1c(C)[nH]c(C(=O)OCc2nnc(-c3ccccc3)o2)c1C"
result_number = 14.6

[[record]]
molecule = "Cc1c(NC(=O)C(C)OC(=O)COc2cccc3c2OC(C)(C)C3)c(=O)n(-c2ccccc2)n1C (stereo not given)"
result_number = 4.56


[Q] Reported inhibition, molecule Cc1ccc(C)c(N2CCN(CCCNC(=O)Cn3cc4c(n3)CCC(C)C4)CC2)c1 (stereo not given) : ____
[A] 13.6

[Q] Returns the measured inhibition for the input molecule. Input: `CC(=O)N(CCc1ccccc1C)Cc1cc2cc3c(cc2[nH]c1=O)OCO3`
[A] 8.48

[Q] Find the recorded inhibition belonging to `O=c1ccn(Cc2ccccc2Cl)cc1` and report it.
[A] 15.6

[Q] Can you share its inhibition? I mean this molecule: `CCOC(=O)c1cccc(NC(=O)CSc2nnc(C3CCCCC3)n2C)c1`
[A] 12.9

[Q] Query: inhibition; subject: CC(C)(C)NC(=O)C(Cc1ccccc1)NS(=O)(=O)c1cccc2nsnc12 (stereo not given)
[A] 3.22

[Q] What does the record list as inhibition for Cc1ccc(N2CC(C(=O)Nc3nnc(C)s3)CC2=O)cc1 (stereo not given) ?
[A] 18.6

[Q] For `Cc1onc(-c2ccccc2)c1C(=O)N1CCCSC1=Nc1ccccc1` , what is its reported inhibition?
[A] 10.2
